These measurements were taken from the supplement of paper PMC10567573.

B1: INTS3 (parent)
chain: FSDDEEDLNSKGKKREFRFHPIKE

Variants of: B1
EXPERIMENT_SUMMARY: protein stability index of a GFP-peptide fusion (GPS, HEK-293T) (PSI 1-6); higher = more stable;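 also: lentivirally expressed fusions sorted by FACS into six bins by GFP to DsRed ratio, PSI derived from sequencing read proportions per bin multiplied by bin number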
ASSAY_SETUP: c terminus: a fixed tail appended
MEASURED_METRIC: protein stability index
Returns: the value as a bare number; no unit string appended.

{"VARIANT_NAME": "E16F", "protein stability index": 3.05}

Please indicate protein stability index recorded for `I22E`
3.89

Please indicate protein stability index recorded for `P21T`
4.43

Please indicate protein stability index recorded for `N9Q`
2.68

Please indicate protein stability index recorded for `P21N`
4.11

Please indicate protein stability index recorded for `L8H`
2.73

Please indicate protein stability index recorded for `K23M`
3.5
